# protocol-notes: NCI Yeast Anticancer Drug Screen. Data for the cln2 rad14 strain (AID 165);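 also: 0% = growth equal to vehicle treated cultures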
# condition-description: S. cerevisiae cln2 rad14 strain, at 50.0 µM, stronger effect = higher value
# Description: Growth inhibition of yeast strains with defined genetic alterations is measured as a screen for potential anti-cancer activity. Selected strains with alterations in DNA damage repair or cell cycle control were exposed to compounds and growth inhibition was measured relative to vehicle treated controls. The strain used in this assay is cln2 rad14
About 79,000 compounds went through this panel and 15% of them were active in at least one assay; those are over-represented in the sample as a whole.

[
  {
    "molecule": "O=C(O)c1c(F)c(F)c(-c2c(F)c(F)c(C(=O)O)c(C(=O)O)c2F)c(F)c1C(=O)O",
    "growth inhibition / %": 7.05
  },
  {
    "molecule": "Nc1cc2[nH]cnc2c(=O)[nH]1",
    "growth inhibition / %": 21.8
  },
  {
    "molecule": "COc1ccc(OCc2nc3cc(C(F)(F)F)ccc3nc2-c2ccccc2)cc1",
    "growth inhibition / %": 5.2
  },
  {
    "molecule": "CCOC(=O)C1(C(F)(F)F)N=C(CC)OC(N2CCOCC2)=N1 (stereo not given)",
    "growth inhibition / %": 10.1
  },
  {
    "molecule": "COc1cc(CNc2nc3ccccc3nc2C(=O)O)cc(OC)c1OC",
    "growth inhibition / %": 5.1
  },
  {
    "molecule": "Cc1cccc2c1Oc1ccccc1C2NC(=O)c1ccc([N+](=O)[O-])cc1 (stereo not given)",
    "growth inhibition / %": -0.9
  },
  {
    "molecule": "C#CN1C(=O)c2c(c(-c3ccccc3)c(-c3ccc(Oc4ccc(-c5c(-c6ccccc6)c6c(c(-c7ccccc7)c5-c5ccccc5)C(=O)N(C#C)C6=O)cc4)cc3)c(-c3ccccc3)c2-c2ccccc2)C1=O",
    "growth inhibition / %": 10.3
  },
  {
    "molecule": "NCCS/C=C\\C(=O)OCc1ccc(Br)cc1",
    "growth inhibition / %": 6.45
  },
  {
    "molecule": "C[S+]1C=C(c2ccccc2)SC=C1c1ccccc1 (stereo not given)",
    "growth inhibition / %": 8.3
  },
  {
    "molecule": "O=c1cc(N2CCOCC2)n2c(ccc3ccccc32)n1",
    "growth inhibition / %": 13.2
  }
]

* * *

# protocol-notes: NCI Yeast Anticancer Drug Screen. Data for the rad50 strain (AID 155);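 also: 0% = growth of vehicle-only cultures of the same strain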
# condition-description: S. cerevisiae rad50 strain growth inhibition; at 50.0 µM; stronger effect = higher value
About 79,000 compounds went through this panel and 15% of them were active in at least one assay; those are over-represented in the sample as a whole.
Measured growth inhibition, listed per entry.

[
  {
    "molecule": "C=CC(=O)OCc1ccc(OC)cc1",
    "growth inhibition, %": 30.1
  },
  {
    "molecule": "O=C(O)C12C3CCC(C3)C1(C(=O)O)C1CCC2C1 (configuration not stated)",
    "growth inhibition, %": -13.3
  },
  {
    "molecule": "Clc1cccc(-c2sc(-c3ccsc3)cc2Cc2ccsc2)c1",
    "growth inhibition, %": -21.2
  },
  {
    "molecule": "C/C(=N/NC(N)=S)c1c[nH]c(=O)[nH]c1=O",
    "growth inhibition, %": -3
  },
  {
    "molecule": "N#Cc1c(F)c(F)c(Oc2c(F)c(F)c(F)c(F)c2F)c(F)c1Oc1c(F)c(F)c(F)c(F)c1F",
    "growth inhibition, %": -1.1
  },
  {
    "molecule": "Nc1nc(Cl)nc(Cl)c1N",
    "growth inhibition, %": -21.9
  },
  {
    "molecule": "CCCCCCCCCCCCCCCCCCCCC1CC(=O)OC1=O (configuration not stated)",
    "growth inhibition, %": 41.6
  },
  {
    "molecule": "Cn1c(=O)c2c(nc(CCNC(=O)c3ccccc3)n2C)n(C)c1=O",
    "growth inhibition, %": -1.15
  },
  {
    "molecule": "N#CCC(=O)N1CCCCCCC1",
    "growth inhibition, %": 20.4
  },
  {
    "molecule": "CC(C)CCOC(=O)c1ccccc1OC(=O)Nc1ccc(Cl)cc1[N+](=O)[O-]",
    "growth inhibition, %": -18.9
  },
  {
    "molecule": "NC(=O)c1cc(Cl)c(N)c(Cl)c1",
    "growth inhibition, %": 8.2
  },
  {
    "molecule": "CC/C(Cl)=N\\OC(=O)Nc1ccc(F)cc1F",
    "growth inhibition, %": 2.2
  }
]

* * *

Measured growth inhibition, listed per entry.
# protocol-notes: NCI Yeast Anticancer Drug Screen. Data for the mec2-1 strain (AID 157)
# condition-description: S. cerevisiae mec2-1 strain, at 50.0 µM, stronger effect = higher value
The panel holds about 79,000 compounds, 15% with a hit somewhere; the sample as a whole holds those more often.

[
  {
    "compound": "CC(=O)Nc1ccc(C(N)=S)cc1",
    "value-units": "%",
    "growth inhibition": 7.5
  },
  {
    "compound": "CC(=O)[O-].O=S(=O)(Nc1ncccn1)c1ccc(N=Cc2ccccc2O)cc1.O=S(=O)(Nc1ncccn1)c1ccc(N=Cc2ccccc2O)cc1.[Co+2]",
    "value-units": "%",
    "growth inhibition": 23.2
  },
  {
    "compound": "CC1=C(C#N)C(C#N)(C#N)C(NN(C)C)C1 (stereo unspecified)",
    "value-units": "%",
    "growth inhibition": 20.9
  },
  {
    "compound": "N#CCCc1nc(N)nc(N)n1",
    "value-units": "%",
    "growth inhibition": -3.7
  },
  {
    "compound": "O=c1cc(-c2ccccc2)[nH]c2[nH]n(-c3ccccc3)c(=O)c12",
    "value-units": "%",
    "growth inhibition": 14.2
  },
  {
    "compound": "Clc1ccc(Cl)nc1",
    "value-units": "%",
    "growth inhibition": -8.25
  }
]

* * *

# protocol-notes: NCI Yeast Anticancer Drug Screen. Data for the rad50 strain (AID 155);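 also: 0% = growth of vehicle-only cultures of the same strain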
# condition-description: S. cerevisiae rad50 strain growth inhibition; at 50.0 µM; stronger effect = higher value
The panel holds about 79,000 compounds, 15% with a hit somewhere; the sample as a whole holds those more often.
Measured growth inhibition, listed per entry.
assay-readout: growth inhibition (%)

[
  {
    "compound": "C=C1C(=O)O[C@@H]2/C=C(/C)[C@@H](OC(C)=O)C/C=C(\\C)C(O)[C@@H](OC(=O)/C(C)=C\\C)C12 (stereo partly specified)",
    "assay-readout": "growth inhibition",
    "value-observed": 17.4
  },
  {
    "compound": "CCC(CC)c1nc2c([nH]1)c(=O)n(C)c(=O)n2C",
    "assay-readout": "growth inhibition",
    "value-observed": -34
  },
  {
    "compound": "CC(=O)OC(C)C1CCCC1OC(C)=O (stereo unspecified)",
    "assay-readout": "growth inhibition",
    "value-observed": -3.95
  },
  {
    "compound": "Cc1ccc(F)c2[nH]c(-c3ccccc3)cc(=O)c12",
    "assay-readout": "growth inhibition",
    "value-observed": 14.9
  },
  {
    "compound": "COc1cc(Nc2cnc3cc(N)ccc3n2)cc(OC)c1OC",
    "assay-readout": "growth inhibition",
    "value-observed": -16.8
  },
  {
    "compound": "CCOC(=O)C(NCc1cccc(C(F)(F)F)c1)(NC(=O)c1ccccc1)C(F)(F)F (stereo unspecified)",
    "assay-readout": "growth inhibition",
    "value-observed": 12.2
  },
  {
    "compound": "O=C1OC(=O)C2(Cl)C3C=CC(C3)C12 (stereo unspecified)",
    "assay-readout": "growth inhibition",
    "value-observed": 9.3
  },
  {
    "compound": "C/C(=N\\NC(=O)C1CCCO1)c1cccc2ccccc12 (stereo unspecified)",
    "assay-readout": "growth inhibition",
    "value-observed": 3.1
  },
  {
    "compound": "O=S(=O)(Nc1cc(Cl)c(NS(=O)(=O)c2ccccc2)c(S(=O)(=O)c2ccccc2)c1Cl)c1ccccc1",
    "assay-readout": "growth inhibition",
    "value-observed": 58.2
  },
  {
    "compound": "CCOC(=O)CC1(C)OCC(c2ccccc2)O1 (stereo unspecified)",
    "assay-readout": "growth inhibition",
    "value-observed": 8.8
  },
  {
    "compound": "COC(CCCl)c1ccccc1 (stereo unspecified)",
    "assay-readout": "growth inhibition",
    "value-observed": 1.2
  }
]

* * *

# protocol-notes: NCI Yeast Anticancer Drug Screen. Data for the mlh1 rad18 strain (AID 175)
# condition-description: S. cerevisiae mlh1 rad18 strain growth inhibition; at 50.0 µM; stronger effect = higher value
This is part of a sample that, as a whole, favours compounds with a hit. Of some 79,000 tested, about 15% had one in any assay.
Measured growth inhibition, listed per entry.

[
  {
    "molecule": "CC(C)OC(CCCl)c1ccccc1 (stereo unspecified)",
    "growth inhibition (%)": 3.1
  },
  {
    "molecule": "C/C=C/C=N/N(C(=O)c1cc([N+](=O)[O-])cc([N+](=O)[O-])c1)C1=NC(c2ccccc2)C(c2ccccc2)=NN1 (stereo unspecified)",
    "growth inhibition (%)": 26.3
  },
  {
    "molecule": "CN(C)CCCNC(=O)Nc1ccc(Cl)cc1",
    "growth inhibition (%)": 12.8
  },
  {
    "molecule": "O=C(CC/C(CC(=O)c1ccc(Cl)cc1)=N\\O)Nc1cccc(Cl)c1",
    "growth inhibition (%)": -11.6
  },
  {
    "molecule": "CCOC(=O)Oc1cc2c(ccn2C)c2c1c1ccccc1n2C(=O)OCC",
    "growth inhibition (%)": 0.4
  },
  {
    "molecule": "Cc1ccc(S(=O)(=O)OC2CC(C(C)(C)C)CCC2c2ccccc2)cc1 (stereo unspecified)",
    "growth inhibition (%)": 5.9
  },
  {
    "molecule": "CN1C/C(=C\\c2ccccc2)C2=NN(C(N)=S)[C@H](c3ccccc3)[C@@H]2C1",
    "growth inhibition (%)": -16.9
  },
  {
    "molecule": "O=S(Cc1ccccc1)c1ccccc1Cn1cccc1 (stereo unspecified)",
    "growth inhibition (%)": -9.5
  },
  {
    "molecule": "COc1cc(C)cc(C(=O)C2=NNCC2c2ccccc2)c1O (stereo unspecified)",
    "growth inhibition (%)": 16.2
  },
  {
    "molecule": "C[S+]1C=C(c2ccccc2)SC=C1c1ccccc1 (stereo unspecified)",
    "growth inhibition (%)": 55
  },
  {
    "molecule": "OCCCNCc1ccccc1",
    "growth inhibition (%)": -21.1
  }
]
